Where these numbers come from: PubChem BioAssay AID2796

assay target: Aryl hydrocarbon receptor (Homo sapiens)
test protocol: AHR activators, primary screen, cell-based, luminescence, luciferase reporter, human (AID 2796);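 note: 0% = vehicle wells and 100% = reference agonist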
condition label: AHR-responsive luciferase reporter cells, at 5 µM, hits give high values
The whole screen tested about 320,000 compounds, of which about 8,000 (2.5%) were called active. The sample as a whole holds a higher share of actives than the screen did.
endpoint name: activation (%)
Field: numeric (%). Do not append units.

Challenge: Which activation value is on record for COc1c(O)ccc2c1-c1c3c(cc4c1C(C2)N(C)CC4)OCO3 (stereo not given) ?
Response given: 4.84

Challenge: Given the compound COC1=CC=C2[C@H]3Cc4ccc(OC)c5c4[C@@]2(CCN3C)C1O5 (stereo not given in full) , what is its reported activation?
Response given: -1.46

Challenge: Bench note: what activation did CN(C)CCN(CC1CCCN(Cc2ccccc2F)C1)C(=O)Cc1ccc(F)c(F)c1 (stereo not given) show?
Response given: -0.87

Challenge: What does the data say about its activation? Entry: `COc1cc2nc(N3CCN(C(=O)[C@@H]4CCCO4)CC3)nc(N)c2cc1OC`
Response given: 5.62

Challenge: Return reported activation; argument: `c1ccc(CCN2CCC3(CC2)OCCO3)cc1`
Response given: -0.2
